# target under test: Human DAAO (Homo sapiens, UniProt P14920)
# Sequence (P14920 whole entry): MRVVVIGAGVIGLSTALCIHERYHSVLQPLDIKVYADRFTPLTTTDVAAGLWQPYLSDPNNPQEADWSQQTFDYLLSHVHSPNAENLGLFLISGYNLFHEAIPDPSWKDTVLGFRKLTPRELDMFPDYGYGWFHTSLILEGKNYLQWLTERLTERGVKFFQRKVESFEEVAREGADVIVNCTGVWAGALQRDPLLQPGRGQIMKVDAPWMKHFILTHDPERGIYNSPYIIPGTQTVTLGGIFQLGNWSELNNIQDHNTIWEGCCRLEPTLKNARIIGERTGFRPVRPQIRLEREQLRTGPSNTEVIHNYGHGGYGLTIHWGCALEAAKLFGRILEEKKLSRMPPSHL
# assay comment: D-Amino Acid Oxidase enzyme assay (D-serine, horseradish peroxidase/Amplex Red coupled fluorescence)
# Assay type: biochemical
# measurement setup: D-serine 5 mM, pH 7.4
Reported IC50 values for a set of compounds

Field: example entries. Status: answers known.
| compound | IC50 |
| --- | --- |
| C#Cc1cccc(CC2CCc3[nH]c(C(=O)O)cc32)c1 (stereo not drawn) [Compound 74] | ≤ 0.1 µM |
| O=C(O)c1cc2c([nH]1)CCC2Cc1cccc(-c2ccccc2)c1 (stereo not drawn) [Compound 82] | ≤ 1 µM |
| O=C(O)c1cc2c([nH]1)CCC2Cc1cccc(Br)c1 (single isomer, unassigned) [Compound 64] | ≤ 0.1 µM |

**Query** Fill blank: measured IC50 of the compound O=C(O)c1cc2c([nH]1)CCC2c1cccc(F)c1 (racemic) [Compound 94] is ____.
**Result** ≤ 0.1 µM

**Query** Fill blank: measured IC50 of the compound O=C(O)c1cc2c([nH]1)CC(F)(F)C2 [Compound 21] is ____.
**Result** ≤ 1 µM

**Query** Fill blank: measured IC50 of the compound O=C(O)c1[nH]c2c(c1Br)C(CCc1ccccc1)CC2 (stereo not drawn) [Compound 147] is ____.
**Result** ≤ 1 µM

**Query** Fill blank: measured IC50 of the compound CC1CCc2[nH]c(C(=O)O)cc21 (single isomer, unassigned) [Compound 6] is ____.
**Result** ≤ 100 µM

**Query** Fill blank: measured IC50 of the compound O=C(O)c1cc2c([nH]1)CCC2Cc1ccc(Br)cc1 (single isomer, unassigned) [Compound 61] is ____.
**Result** ≤ 100 µM

**Query** Fill blank: measured IC50 of the compound O=C(O)c1cc2c([nH]1)CCC2c1ccc(F)c(F)c1 (stereo not drawn) [Compound 97] is ____.
**Result** ≤ 0.1 µM
